system: UO-31; experiment: NCI tumour cell line growth inhibition, 48 h
Calls of active or inactive are those of the source. Cut-off read from the data, not from the text of the source: active = GI50 up to about 1.1 µM and inactive = higher.
Outcomes you can answer with include only these: active, inactive

Dear all, I need the recorded test outcome for COc1ccc(N2C(=O)C3c4[nH]c5ccc(OCc6ccccc6)cc5c4C4CCC(C(C)C)CC4C3C2=O)cc1 (stereo not drawn) , thank you.
inactive

Give the logged outcome of this assay for the following compound: O=c1n(N=[S+]([O-])(c2ccccc2)c2ccccc2)c(=O)n2n1C1C=CC2CC1
inactive

Short answer needed: outcome of this test for CC1CN=C(N(C(=O)Nc2ccccc2)c2ccccc2)S1 (stereo not drawn) ?
inactive

Tell me the recorded outcome of this test for Cc1nc2c(=O)n3c4c(cccc4c2o1)CCC3 .
inactive

Test call, this compound: COc1cc2ccc(CC(N)=O)cc2cc1OC
inactive

What outcome does the record of this test show for CC1NOC(=O)C1/N=N/c1cccc(Cl)c1 (stereo not drawn) ?
inactive

What is the recorded call for this compound in the test? O=c1oc2ccccc2cc1-c1csc(Nc2cc(Cl)cc(Cl)c2)n1
inactive

---

GI50 reference
system: SF-295; test: NCI tumour cell line growth inhibition, 48 h
The source made the active and inactive calls. No stated cut-off is given here; in the data, active = GI50 up to about 1.1 µM and inactive = higher.

Consider the reported GI50 for these compounds:
CN1N=C2c3ccccc3OC(c3ccccc3)[C@H]2C1c1ccccc1 (stereo partly specified): 90.4 µM (inactive)
CC(C)OP(=O)(OC(C)C)c1nn(-c2ccc([N+](=O)[O-])cc2)c(=N)s1: > 100 µM (inactive)
CCOC(=O)c1ccc(NC(=O)O/N=C(/Cl)CCl)cc1: 30.8 µM (inactive)
Nc1ccn(CCOC(c2ccccc2)P(=O)(O)O)c(=O)n1 (stereo unspecified): > 100 µM (inactive)
CCCCCCCN1C(=O)C(O)(c2ccc(C3(O)C(=O)N(CCCCCCC)c4ccccc43)s2)c2ccccc21 (stereo unspecified): 1.85 µM (inactive)
CC(=O)/C(=C(/Br)I)c1ccccc1: 15.5 µM (inactive)

Note to self: GI50 of Cc1c(C(=O)NCCO)[n+]([O-])c2cc(Cl)ccc2[n+]1[O-] with SF-295 was > 100 µM (inactive)

Record for CSCSCC(CO)NC(=O)/C=C/c1c(C)nc(O)nc1O (stereo unspecified) under target or system SF-295: GI50 reported as > 100 µM (inactive)

The reported GI50 value, SF-295, for COC(=O)C(CCCC1(c2ccccc2)OCCO1)C(C)=O (stereo unspecified) reads > 100 µM (inactive)

Kindly note: SF-295, CC1=NN(c2nc(N)nc(-c3cc4ccccc4oc3=N)n2)C(C)(C)C1 , GI50 value reported: 18.2 µM (inactive)

Simply: CC(=C(C(=O)O)C(=O)O)c1cc(-c2cccs2)cc(-c2ccc(Cl)cc2)c1O , SF-295, GI50 = 17.9 µM (inactive)

---

tested on: COLO 205; assay: NCI tumour cell line growth inhibition, 48 h
Calls of active or inactive are those of the source. Cut-off read from the data, not from the text of the source: active = GI50 up to about 1.1 µM and inactive = higher.
# output must be one of active, inactive

A selection of reference data follows.
Cc1ccc(CCC(=O)C(=O)O)s1: inactive
O=c1cc(-c2ccccc2)c2ccc(O)c(CN(CCCl)CCCl)c2o1: inactive
CCCS(=O)(=O)O: inactive
CCCCSc1n/c(=C\c2ccc(N(C)C)cc2)c2nnnn12: inactive
O=C(Cn1c(-c2ccccc2)cc2ccccc21)N1CCCC1: inactive
Oc1c2cc(Cl)cc1COCc1cc(Cl)cc(c1O)COCc1cc(Cl)cc(c1O)COC2: inactive
c1ccc2c(c1)Oc1cccc3cccc-2c13: inactive
CC(=O)/C(=C(/Br)I)c1ccccc1: inactive
COC(=O)c1cc(C)ccc1C1CN=NC12Cc1c(C)cc(C)cc1C2=O (stereo not drawn): inactive
CC(C)OP(=O)(OC(C)C)c1nn(-c2ccc([N+](=O)[O-])cc2)c(=N)s1: inactive

Answer briefly: the call reported for CC(=O)OCC1OC(n2c(-c3ccccc3)c(C(C)=O)c(-c3ccc(Cl)cc3)c(C#N)c2=S)C(OC(C)=O)C(OC(C)=O)C1OC(C)=O (stereo not drawn) in this assay.
inactive

Recorded test outcome, item O=[N+]([O-])c1ccc(/N=N\c2c(O)c(S(=O)(=O)O)cc3cc(S(=O)(=O)O)ccc23)cc1
inactive

Please state the recorded outcome for this compound: COC1=CC(=O)c2ccc(C(C)C)cc2C1(C)C1=NC(C)(C)CO1 (stereo not drawn)
inactive

Kindly provide the recorded test outcome for the following compound: CCC(=O)N/S(=N/S(=O)(=O)c1ccccc1)C(Cl)(Cl)Cl (stereo not drawn)
inactive

Call for entry O=C(CC1(O)C(=O)Nc2c(Cl)ccc(Cl)c21)c1ccc2ccccc2c1 (stereo not drawn) :
inactive

Entry CCCCCCCC(=O)NCC(O)CNC(=O)CCCCCCC : call = ?
inactive

What did this assay record as the result for CCN(CC)CCC/N=c1\c2cc(OC)ccc2[nH]c2c([N+](=O)[O-])ccc(NCCCN(CC)CC)c12 ?
inactive

For this compound, state the assay outcome: C=CCC1=C2CCCCC2CCC1=O (stereo not drawn)
inactive

I'd appreciate the recorded outcome for Cc1ccc(S(=O)(=O)[N-]C2C(=O)c3ccccc3C(=O)C2[n+]2cccc(C(N)=O)c2)cc1 (stereo not drawn) from this test.
inactive

Recorded call for CSC1=N/C(=C\c2ccc(C)cc2)C(=O)N1 ?
inactive

Which result was noted for this compound in the test: COC(C)(C)C(O)C(O)C[C@H](C)C1CC=C2C1(C)CCC1[C@@]3(C)CCC(OC(C)=O)C(C)(C)C3CC(OC3OC(COC(C)=O)C(O)C(O)C3O)[C@@]21C (stereo partly drawn)
inactive

Record lookup: outcome of this test for O=c1c2nc3ccccc3c(=O)n2ncn1-c1ccccc1Cl ?
inactive

Outcome? CCC1(OC(=O)CN)C(=O)OCc2c1cc1n(c2=O)Cc2cc3ccccc3nc2-1 (stereo not drawn)
active

Returns: the outcome recorded for Cc1nn(-c2ccccc2)c2nc3ccc(Cl)cc3c(-c3ccccc3)c12 in this assay.
inactive

What did this assay record as the result for COc1ccc(NS(=O)(=O)c2ccc(/N=C3\C=C(Nc4ccc(S(=O)(=O)Nc5ccc(OC)nn5)cc4)C(=O)c4ccccc43)cc2)nn1 ?
inactive

# fetch the recorded call for O=C1C=CC=C/C1=C1/SC(c2ccccc2)=C(O)N1c1ccccc1 here
inactive

Assay result, entry CCOC(=O)c1ncn2c1[nH]c(=O)c1ccccc12 — outcome?
inactive

Per the records of this test, what outcome belongs to FC(F)(F)c1ccc2nc(Nc3ccc(Cl)c(Cl)c3)c(-c3ccccc3)nc2c1 ?
inactive

---

system: SR; test: NCI tumour cell line growth inhibition, 48 h
The source made the active and inactive calls. No stated cut-off is given here; in the data, active = GI50 up to about 1.1 µM and inactive = higher.
Select the correct class. Options are yes (1) (active), no (0) (inactive) and nothing else.

# example entries with known answers
COc1ccc2c(c[n+](C)c3c4cc5c(cc4ccc23)OCO5)c1OC [CHELERYTHRINE CHLORIDE]: no (0)
COc1ccc(/C=C2\N=C3NC(=O)C(N4CCCCC4)=C(N)N3C2=O)cc1: no (0)
COc1ccc2nc3cc([N+](=O)[O-])ccc3c(Nc3ccc(S(=O)(=O)N=C(N)N)cc3)c2c1: no (0)
c1ccc2c(c1)-c1nc3ccccc3cc1C2N1CCOCC1 (centres undefined): no (0)
COc1ccc(C2S/C(=C\c3cc(OC)c(OC)c(OC)c3)C(=O)N2NC(=O)Cc2ccccc2)cc1 (centres undefined): no (0)

Kindly provide the recorded test outcome for the following compound: COc1ccc2nc3n(c2c1)C(=O)c1ccccc1-3
no (0)

Hi, sorry to bother you, what did the test record for N=c1c2c(=S)n(-c3ccccc3)c(=S)n(-c3ccccc3)c2nc(SCCCN2CCCCC2)n1-c1ccccc1 ?
yes (1)

Assay outcome for Nc1cc2c(nc3c4ccccc4c(N)cc3[n+]2-c2cccc3ccccc23)c2ccccc12.Nc1cc2c(nc3c4ccccc4ccc3[n+]2-c2cccc3ccccc23)c2ccccc12 : what was it?
no (0)

Lab log entry: CC(=O)OC1=CC(n2cc(F)c(=O)[nH]c2=O)OC(C)C1=O (centres undefined) — outcome as called in the assay?
no (0)

---

test system: SF-268; assay: NCI tumour cell line growth inhibition, 48 h
Active and inactive are the calls of the source. No stated cut-off is given here; in the data, active = GI50 up to about 1.1 µM and inactive = higher.
Would you mind answering with one of these outcomes? active, inactive

Recorded test outcome, item COc1cc(CCC(=O)NS(=O)(=O)c2ccccc2)cc(OC)c1OC
inactive

Fill in: this test's call for CCN(CC)C(=O)c1cc(OC(C)C)ccc1-c1c(C)cc(OC(C)C)c(OC)c1OC is ___
inactive

---

test system: NCI-H226; assay: NCI tumour cell line growth inhibition, 48 h
Calls of active or inactive are those of the source. Cut-off read from the data, not from the text of the source: active = GI50 up to about 1.1 µM and inactive = higher.
value type: GI50

# example entries with known answers
CCCCN(CCCC)CC(C(=O)Nc1ccccc1)/C(C)=N\NC(=O)c1ccncc1 (stereo not drawn): > 100 µM (inactive)
CCN(CC)C(=O)c1cc(OC(C)C)ccc1-c1c(C)cc(OC(C)C)c(OC)c1OC: 98.2 µM (inactive)

# O=C(O)CN(c1ccccc1)S(=O)(=O)c1ccc([N+](=O)[O-])cc1 with NCI-H226: GI50 is > 100 µM (inactive)
